# Test system: NF-κB activity in HEK293 NF-κB reporter cells
# PROTOCOL_NOTES: NF-kB activity assay (GFP reporter, ionomycin/PMA)
# Assay type: cell-based
# CONDITIONS_USED: 1 µM, 1,5 h, n=3
MEASUREMENT_KIND: Mean NFκB response

> print(dat)
                                   compound                  recorded.measurement
1  N#Cc1ccc([C@H]2CCCC[C@H]2O)cc1C(F)(F)F [PF-998425]  2870.31 GFP+-cells/confluence ∙ 1000
2  Cc1c(N2C(=O)C3C(O)CCN3C2=O)ccc(C#N)c1Cl (centres unmarked) [BMS564929]  2292.65 GFP+-cells/confluence ∙ 1000
3  Oc1ccc(-c2nc3cc(O)cc(Br)c3o2)cc1 [WAY200070]  2392.96 GFP+-cells/confluence ∙ 1000
4  C[C@]1(O)CC[C@H]2[C@@H]3CCC4=CC(=O)CCC4=C3C=C[C@@]21C [Methyltrienolone]  3531.33 GFP+-cells/confluence ∙ 1000

Now look at this entry.
QUERY: Give recorded Mean NFκB response with NF-κB activity in HEK293 NF-κB reporter cells for the following compound: CNC(=O)c1ccc(N2C(=S)N(c3ccc(C#N)c(C(F)(F)F)c3)C(=O)C2(C)C)cc1F [Enzalutamide]
RESULT: 4053.16 GFP+-cells/confluence ∙ 1000

====

# TARGET_UNDER_TEST: AURKA (Homo sapiens)
# Construct: made in house
# Sequence (O14965 whole entry, species assumed): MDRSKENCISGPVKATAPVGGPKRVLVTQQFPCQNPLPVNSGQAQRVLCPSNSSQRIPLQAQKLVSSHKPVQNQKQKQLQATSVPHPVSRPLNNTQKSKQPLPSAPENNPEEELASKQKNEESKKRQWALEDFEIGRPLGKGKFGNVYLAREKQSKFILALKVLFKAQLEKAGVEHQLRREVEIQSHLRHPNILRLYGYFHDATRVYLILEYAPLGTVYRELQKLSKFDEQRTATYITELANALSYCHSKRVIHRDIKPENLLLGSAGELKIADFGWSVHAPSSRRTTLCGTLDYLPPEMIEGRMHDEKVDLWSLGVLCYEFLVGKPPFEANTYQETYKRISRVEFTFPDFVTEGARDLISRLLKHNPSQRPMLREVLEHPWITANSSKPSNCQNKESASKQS
# PROTOCOL_NOTES: Liability panel screening by DSF: AURKA
# Type: binding
# CONDITIONS_USED: DSF, 20 µM, n=2; read-out: Mean ΔTM AURKA
MEASUREMENT_KIND: ΔTm at 20 µM (°C)
A number alone suffices; assume °C.

Here is how some compounds turned out for ΔTm at 20 µM.
> print(dat)
                                   compound  measurement.kind  unit.name  recorded.measurement
1  C#C[C@]1(O)CC[C@H]2[C@@H]3CCc4cc(O)ccc4[C@H]3CC[C@@]21C      ΔTm at 20 µM         °C                  0.11
2  C[C@@H]1Cc2c([nH]c3ccccc23)[C@@H](c2c(F)cc(/C=C/C(=O)O)cc2F)N1CC(C)(C)F      ΔTm at 20 µM         °C                 -0.16
3  CC/C(=C(\c1ccc(O)cc1)c1ccc(OCCN(C)C)cc1)c1ccccc1 [(Z)-4-Hydroxytamoxifen]      ΔTm at 20 µM         °C                  0.07
4     CC(C)c1ccc(/C=N/NC(=O)c2ccc(O)cc2)cc1      ΔTm at 20 µM         °C                  0.71
5    N#Cc1ccc([C@H]2CCCC[C@H]2O)cc1C(F)(F)F      ΔTm at 20 µM         °C                 -1.09

Now look at this entry.
QUERY: What value of ΔTm at 20 µM has been recorded for this entry: Cc1c(-c2ccc(O)cc2)n(Cc2ccc(OCCN3CCCCCC3)cc2)c2ccc(O)cc12
RESULT: 0.09

====

# TARGET_UNDER_TEST: MAPK1 (Homo sapiens, UniProt P28482)
# Construct: made in house
# Sequence (P28482 whole entry, species assumed): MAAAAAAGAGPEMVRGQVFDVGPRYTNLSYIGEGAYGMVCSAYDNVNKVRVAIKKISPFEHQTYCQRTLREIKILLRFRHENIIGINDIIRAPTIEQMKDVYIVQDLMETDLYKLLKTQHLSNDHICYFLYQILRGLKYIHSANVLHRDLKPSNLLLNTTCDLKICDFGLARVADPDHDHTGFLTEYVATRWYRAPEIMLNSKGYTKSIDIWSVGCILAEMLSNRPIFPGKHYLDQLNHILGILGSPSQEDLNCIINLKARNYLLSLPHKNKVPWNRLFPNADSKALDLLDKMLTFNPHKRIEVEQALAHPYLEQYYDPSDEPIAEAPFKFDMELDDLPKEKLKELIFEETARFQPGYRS
# PROTOCOL_NOTES: Liability panel screening by DSF: MAPK1
# Type: binding
# CONDITIONS_USED: DSF, 20 µM, n=2; read-out: Mean ΔTM MAPK1
MEASUREMENT_KIND: ΔTm at 20 µM (°C)
A number alone suffices; assume °C.

COMPOUND	RECORDED_MEASUREMENT
Cc1ccc2c(NC[C@](O)(CC(C)(C)c3cc(F)cc4c3OCC4)C(F)(F)F)cccc2n1 [Mapracorat]	-0.47
COC(=O)[C@@H]1CC2=CC(=O)CC[C@]2(C)[C@@]23O[C@@H]2C[C@@]2(C)[C@@H](CC[C@@]24CCC(=O)O4)[C@H]13 [Eplerenone]	0.21
Cc1c(-c2ccc(O)cc2)n(Cc2ccc(OCCN3CCCCCC3)cc2)c2ccc(O)cc12 [Bazedoxifene]	0.08
N#Cc1ccc([C@H]2CCCC[C@H]2O)cc1C(F)(F)F [PF-998425]	-0.24
C[C@H]1C[C@H]2[C@@H]3CCC4=CC(=O)C=C[C@]4(C)[C@@]3(Cl)[C@@H](O)C[C@]2(C)[C@@]1(O)C(=O)CO [Beclomethasone]	0.36
CC#C[C@]1(O)CC[C@H]2[C@@H]3CCC4=CC(=O)CCC4=C3[C@@H](c3ccc(N(C)C)cc3)C[C@@]21C [Mifepristone]	-0.7
CC(=O)O[C@]1(C(C)=O)CC[C@H]2[C@@H]3C=C(Cl)C4=CC(=O)[C@@H]5C[C@@H]5[C@]4(C)[C@H]3CC[C@@]21C [Cyproterone acetate]	-0.22
Cc1c(N2C(=O)C3C(O)CCN3C2=O)ccc(C#N)c1Cl (centres unmarked) [BMS564929]	0.12

Now look at this entry.
QUERY: What value of ΔTm at 20 µM has been recorded for this entry: CCC(=O)O[C@]1(C(=O)SCF)[C@H](C)C[C@H]2[C@@H]3C[C@H](F)C4=CC(=O)C=C[C@]4(C)[C@@]3(F)[C@@H](O)C[C@@]21C [Fluticasone propionate]
RESULT: -0.034

====

Quick reference for Mean NFκB response among some molecules
# Tested on: NF-κB activity in HEK293 NF-κB reporter cells
# PROTOCOL_NOTES: NF-kB activity assay (GFP reporter, ionomycin/PMA)
# Type: cell-based
# CONDITIONS_USED: 1 µM, 12 h, n=3

> print(dat)
                                   molecule    measurement.kind                   recorded.measurement
1    N#Cc1ccc([C@H]2CCCC[C@H]2O)cc1C(F)(F)F  Mean NFκB response  20998.00 GFP+-cells/confluence ∙ 1000
2  Cc1c(N2C(=O)C3C(O)CCN3C2=O)ccc(C#N)c1Cl (stereo not shown)  Mean NFκB response  14670.00 GFP+-cells/confluence ∙ 1000
3  Cc1ccc2c(NC[C@](O)(CC(C)(C)c3cc(F)cc4c3OCC4)C(F)(F)F)cccc2n1  Mean NFκB response  13883.00 GFP+-cells/confluence ∙ 1000

QUERY: What value of Mean NFκB response has been recorded for this entry: CC[C@@H]1Cc2cc(O)ccc2C2=C1c1ccc(O)cc1C[C@H]2CC [(R,R)-THC]
RESULT: 23454.30 GFP+-cells/confluence ∙ 1000

QUERY: What value of Mean NFκB response has been recorded for this entry: CNC(=O)c1ccc(N2C(=S)N(c3ccc(C#N)c(C(F)(F)F)c3)C(=O)C2(C)C)cc1F [Enzalutamide]
RESULT: 23650.00 GFP+-cells/confluence ∙ 1000

====

Quick reference for Mean NFκB response among some compounds
# Test system: NF-κB activity in HEK293 NF-κB reporter cells
# PROTOCOL_NOTES: NF-kB activity assay (GFP reporter, ionomycin/PMA)
# Assay type: cell-based
# CONDITIONS_USED: 3 µM, 18 h, n=3

> print(dat)
                                   compound    measurement.kind                   recorded.measurement
1  CC/C(=C(\c1ccc(O)cc1)c1ccc(OCCN(C)C)cc1)c1ccccc1 [(Z)-4-Hydroxytamoxifen]  Mean NFκB response  38442.69 GFP+-cells/confluence ∙ 1000
2  CC#C[C@]1(O)CC[C@H]2[C@@H]3CCC4=CC(=O)CCC4=C3[C@@H](c3ccc(N(C)C)cc3)C[C@@]21C  Mean NFκB response  34060.00 GFP+-cells/confluence ∙ 1000
3   CCN(CC)c1ccc(/C=N/NC(=O)c2ccc(O)cc2)cc1  Mean NFκB response  38383.33 GFP+-cells/confluence ∙ 1000

QUERY: What value of Mean NFκB response has been recorded for this entry: CC/C(=C(/CC)c1ccc(O)cc1)c1ccc(O)cc1
RESULT: 30966.67 GFP+-cells/confluence ∙ 1000

QUERY: What value of Mean NFκB response has been recorded for this entry: CC(C)c1ccc(/C=N/NC(=O)c2ccc(O)cc2)cc1
RESULT: 36410.00 GFP+-cells/confluence ∙ 1000

====

Quick reference for Mean NFκB response among some compounds
# System: NF-κB activity in HEK293 NF-κB reporter cells
# PROTOCOL_NOTES: NF-kB activity assay (GFP reporter, ionomycin/PMA)
# Type: cell-based
# CONDITIONS_USED: 1 µM, 24 h, n=3

Here is how some compounds turned out for Mean NFκB response.
> print(dat)
                                    compound                         target.under.test    measurement.kind                   recorded.measurement
 1  COC(=O)[C@@H]1CC2=CC(=O)CC[C@]2(C)[C@@]23O[C@@H]2C[C@@]2(C)[C@@H](CC[C@@]24CCC(=O)O4)[C@H]13  NF-κB activity in HEK293 NF-κB reporter cells  Mean NFκB response  39176.67 GFP+-cells/confluence ∙ 1000
 2  Cc1c(N2C(=O)C3C(O)CCN3C2=O)ccc(C#N)c1Cl (stereo not shown)  NF-κB activity in HEK293 NF-κB reporter cells  Mean NFκB response  26713.33 GFP+-cells/confluence ∙ 1000
 3  CNC(=O)c1ccc(N2C(=S)N(c3ccc(C#N)c(C(F)(F)F)c3)C(=O)C2(C)C)cc1F [Enzalutamide]  NF-κB activity in HEK293 NF-κB reporter cells  Mean NFκB response  42106.67 GFP+-cells/confluence ∙ 1000
 4  Cc1c(-c2ccc(O)cc2)n(Cc2ccc(OCCN3CCCCCC3)cc2)c2ccc(O)cc12  NF-κB activity in HEK293 NF-κB reporter cells  Mean NFκB response  29033.33 GFP+-cells/confluence ∙ 1000
 5  CC(=O)O[C@]1(C(C)=O)CC[C@H]2[C@@H]3CCC4=CC(=O)CCC4=C3[C@@H](c3ccc(N(C)C)cc3)C[C@@]21C [Ulipristal acetate]  NF-κB activity in HEK293 NF-κB reporter cells  Mean NFκB response  41050.00 GFP+-cells/confluence ∙ 1000
 6  C[C@]12CCC(=O)C=C1CC[C@@H]1[C@@H]2[C@@H](O)C[C@]2(C=O)[C@@H](C(=O)CO)CC[C@@H]12  NF-κB activity in HEK293 NF-κB reporter cells  Mean NFκB response  30941.17 GFP+-cells/confluence ∙ 1000
 7  CC(=O)O[C@]1(C(C)=O)CC[C@H]2[C@@H]3C=C(Cl)C4=CC(=O)[C@@H]5C[C@@H]5[C@]4(C)[C@H]3CC[C@@]21C [Cyproterone acetate]  NF-κB activity in HEK293 NF-κB reporter cells  Mean NFκB response  42894.68 GFP+-cells/confluence ∙ 1000
 8  CC[C@@H]1Cc2cc(O)ccc2C2=C1c1ccc(O)cc1C[C@H]2CC [(R,R)-THC]  NF-κB activity in HEK293 NF-κB reporter cells  Mean NFκB response  42047.68 GFP+-cells/confluence ∙ 1000
 9         O=C(/C=C/c1ccc(O)cc1)c1ccc(O)cc1O  NF-κB activity in HEK293 NF-κB reporter cells  Mean NFκB response  44476.67 GFP+-cells/confluence ∙ 1000
10  N#CC(Cc1ccc(O)cc1)c1ccc(O)cc1 (stereo not shown)  NF-κB activity in HEK293 NF-κB reporter cells  Mean NFκB response  39415.66 GFP+-cells/confluence ∙ 1000

Now look at this entry.
QUERY: What value of Mean NFκB response has been recorded for this entry: Cc1ccc2c(NC[C@](O)(CC(C)(C)c3cc(F)cc4c3OCC4)C(F)(F)F)cccc2n1
RESULT: 25073.33 GFP+-cells/confluence ∙ 1000

Numbers sourced from paper PMC11790914.
